target: ANO1 (Homo sapiens (Human)); assay: Selective inhibition of ANO1 over ANO2 (Table 1), ANO1 IC50; assay type: cell-based
Sequence (Q5XXA6 whole entry, species assumed): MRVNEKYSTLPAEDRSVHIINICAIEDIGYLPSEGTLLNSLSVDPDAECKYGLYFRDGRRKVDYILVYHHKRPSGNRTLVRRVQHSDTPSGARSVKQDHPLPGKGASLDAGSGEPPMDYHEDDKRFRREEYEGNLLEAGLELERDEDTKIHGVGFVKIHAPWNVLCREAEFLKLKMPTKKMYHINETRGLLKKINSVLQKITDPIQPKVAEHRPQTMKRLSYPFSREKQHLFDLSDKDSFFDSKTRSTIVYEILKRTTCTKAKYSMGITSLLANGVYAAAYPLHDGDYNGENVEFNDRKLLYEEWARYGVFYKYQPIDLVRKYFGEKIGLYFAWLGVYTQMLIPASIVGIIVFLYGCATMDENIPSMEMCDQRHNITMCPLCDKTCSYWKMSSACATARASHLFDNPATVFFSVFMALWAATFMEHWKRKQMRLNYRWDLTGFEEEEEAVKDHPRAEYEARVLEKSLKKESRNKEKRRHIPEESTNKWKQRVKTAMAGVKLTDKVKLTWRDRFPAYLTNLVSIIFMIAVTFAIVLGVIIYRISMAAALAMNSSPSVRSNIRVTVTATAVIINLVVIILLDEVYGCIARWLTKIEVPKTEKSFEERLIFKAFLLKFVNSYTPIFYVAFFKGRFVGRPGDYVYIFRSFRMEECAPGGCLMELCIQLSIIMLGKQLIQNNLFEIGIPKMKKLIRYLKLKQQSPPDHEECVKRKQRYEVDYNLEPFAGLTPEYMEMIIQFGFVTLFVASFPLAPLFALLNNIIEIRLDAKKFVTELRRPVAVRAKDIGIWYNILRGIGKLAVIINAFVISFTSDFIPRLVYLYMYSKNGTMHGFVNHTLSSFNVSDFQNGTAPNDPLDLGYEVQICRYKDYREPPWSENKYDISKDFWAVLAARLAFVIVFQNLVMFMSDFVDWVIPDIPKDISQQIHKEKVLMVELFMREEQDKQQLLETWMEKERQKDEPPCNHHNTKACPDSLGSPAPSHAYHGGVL
Measured log10(IC50) of individual entries
Each number you see is log10 of IC50, and the unit inside the log is µM.

Look over these answered cases.
> print(dat)
                         given.smiles  meas.value
1    Cc1cc(Cl)ccc1OCc1nnc(-c2ccco2)o1        1.80
2  Cc1cc(Cl)ccc1OCC(=O)N/N=C/c1ccccn1        1.50
3   COc1ccccc1CNNC(=O)COc1ccc(Cl)cc1C        1.03

Enquiry: Identify measured log10(IC50) associated with `Cc1cc(Cl)ccc1OCC(=O)N/N=C/c1ccccc1C(F)(F)F`
Return: -0.68

Enquiry: Identify measured log10(IC50) associated with `COc1cccc(CNC(=O)COc2ccc(Cl)cc2C)c1`
Return: 1.73

Enquiry: Identify measured log10(IC50) associated with `C/C(=N\NC(=O)COc1ccc(Cl)cc1C)c1ccccc1OC(F)(F)F`
Return: -0.52

Enquiry: Identify measured log10(IC50) associated with `Cc1cc(Cl)ccc1OCC(=O)N/N=C/c1ccccc1OC(F)(F)F`
Return: -1.68

Enquiry: Identify measured log10(IC50) associated with `Cc1cc(Cl)ccc1OCc1nnc(-c2ccccc2F)o1`
Return: 1.33

Enquiry: Identify measured log10(IC50) associated with `COc1ccccc1-c1nnc(COc2ccc(Cl)cc2C)o1`
Return: 1.29
